experiment: Phase I single dose oral AMX0035 fasted/fed plasma pharmacokinetics and food effect (Protocol A35-002); type: in vivo, human; settings: both sexes, human, in vivo, single dose AMX0035, healthy subjects, fasting; read-out: mean Cmax
readout: Cmax (ng/mL)
State just the number; it will be interpreted in ng/mL.

IN: Report Cmax for O=C(O)Cc1ccccc1 [PAA, phenylacetate] please.
OUT: 26400

###

assay: Phase I single dose oral AMX0035 fasted/fed plasma pharmacokinetics and food effect (Protocol A35-002); type: in vivo, human; conditions: both sexes, human, in vivo, fed; read-out: elimination half-lives (range)
readout: half-life

IN: Query (molecule): O=C(O)Cc1ccccc1 [PAA, phenylacetate] ; field requested: half-life
OUT: 36 to 62.4 min

###

# fraction unbound listing for each entry below
experiment: Plasma protein binding in vitro; format: in vitro ADME; settings: plasma, co-administered in vitro

compound	result
O=C(O)CCCc1ccccc1 [PB, sodium phenylbutyrate]	0.18

IN: fraction unbound for C[C@H](CCC(=O)NCCS(=O)(=O)O)[C@H]1CC[C@H]2[C@@H]3[C@@H](O)C[C@@H]4C[C@H](O)CC[C@]4(C)[C@H]3CC[C@]12C [TURSO, taurursodiol] ?
OUT: 0.02

###

assay: Phase I single dose oral AMX0035 fasted/fed plasma pharmacokinetics and food effect (Protocol A35-002); assay type: in vivo, human; details: both sexes, human, in vivo, single dose AMX0035 fed; Geometric Mean; read-out: AUC(0-last)
readout: AUC(0-t)
Include the unit after the number when you answer.

IN: Look at this compound and give its reported AUC(0-t). O=C(O)Cc1ccccc1 [PAA, phenylacetate]
OUT: 56700 ng·h/mL

###

test: clinical; format: in vivo, human; conditions: both sexes, human, in vivo, Plasma Concentration, Mean
Listed next: entries and their corresponding concentration at 1 h.
Response body: numeric value in ng/mL, unit text excluded.

Answered cases to consult:
> print(dat)
                                 mol.smiles               readout  unit.annotation  quantitative.result
1  C[C@H](CCC(=O)NCC(=O)O)[C@H]1CC[C@H]2[C@@H]3[C@@H](O)C[C@@H]4C[C@H](O)CC[C@]4(C)[C@H]3CC[C@]12C  concentration at 1 h            ng/mL                 1020
2  C[C@H](CCC(=O)O)[C@H]1CC[C@H]2[C@@H]3[C@@H](O)C[C@@H]4C[C@H](O)CC[C@]4(C)[C@H]3CC[C@]12C  concentration at 1 h            ng/mL                 1080

Consider the record given below.
IN: Name the reported concentration at 1 h value associated with the compound `C[C@H](CCC(=O)NCCS(=O)(=O)O)[C@H]1CC[C@H]2[C@@H]3[C@@H](O)C[C@@H]4C[C@H](O)CC[C@]4(C)[C@H]3CC[C@]12C`
OUT: 503

###

experiment: clinical; type: in vivo, human; settings: both sexes, human, in vivo, Plasma Concentration, Mean
Some molecules, each annotated with its measured concentration at 4 h.
Expressed in ng/mL, but write only the number.

molecule	readout	quantitative.result
C[C@H](CCC(=O)NCC(=O)O)[C@H]1CC[C@H]2[C@@H]3[C@@H](O)C[C@@H]4C[C@H](O)CC[C@]4(C)[C@H]3CC[C@]12C [GUDCA, glycoursodeoxycholic acid]	concentration at 4 h	1510
C[C@H](CCC(=O)NCCS(=O)(=O)O)[C@H]1CC[C@H]2[C@@H]3[C@@H](O)C[C@@H]4C[C@H](O)CC[C@]4(C)[C@H]3CC[C@]12C [TURSO, taurursodiol]	concentration at 4 h	636

Note: attention shifts to another entry.
IN: Form field: reported concentration at 4 h of C[C@H](CCC(=O)O)[C@H]1CC[C@H]2[C@@H]3[C@@H](O)C[C@@H]4C[C@H](O)CC[C@]4(C)[C@H]3CC[C@]12C [UDCA, ursodeoxycholic acid]
OUT: 1300
